target: Proteasome assembly chaperone 3 (Homo sapiens, UniProt Q9BT73); assay: Inhibition of PAC3 homodimerization by protein fragment complementation assay
Sequence (Q9BT73 whole entry, the tested form may be a part): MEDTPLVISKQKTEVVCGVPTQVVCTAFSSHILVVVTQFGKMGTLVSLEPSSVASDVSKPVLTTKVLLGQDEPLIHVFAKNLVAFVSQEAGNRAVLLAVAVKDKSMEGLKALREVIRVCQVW
MEASUREMENT LABEL: pIC50
Value format note: pIC50 is -log10 of concentration (mol/L); just state the number.

Query `CC(C)[C@@](O)(C[C@H]1C(=O)/C(=C(\O)[C@H]2[C@@H]3CCCC[C@H]3C=C[C@H]2C)C(=O)N1C)C(=O)O` on Proteasome assembly chaperone 3 (Homo sapiens, UniProt Q9BT73); pIC50 returned: 6.70

----------
molecular target: PAC1-PAC2 complex (Homo sapiens, UniProt O95456+Q969U7); test: Inhibition of PAC1/PAC2 interaction by protein fragment complementation assay
Sequence (O95456 whole entry, the tested form may be a part): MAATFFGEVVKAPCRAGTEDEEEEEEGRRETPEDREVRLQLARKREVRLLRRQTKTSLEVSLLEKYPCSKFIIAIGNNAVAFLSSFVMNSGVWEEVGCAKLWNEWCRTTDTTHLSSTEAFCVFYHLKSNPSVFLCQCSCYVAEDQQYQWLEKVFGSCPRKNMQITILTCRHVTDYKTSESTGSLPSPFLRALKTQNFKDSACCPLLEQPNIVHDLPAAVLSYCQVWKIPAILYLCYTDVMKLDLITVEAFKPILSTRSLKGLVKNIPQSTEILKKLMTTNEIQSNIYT
Sequence (Q969U7 whole entry, the tested form may be a part): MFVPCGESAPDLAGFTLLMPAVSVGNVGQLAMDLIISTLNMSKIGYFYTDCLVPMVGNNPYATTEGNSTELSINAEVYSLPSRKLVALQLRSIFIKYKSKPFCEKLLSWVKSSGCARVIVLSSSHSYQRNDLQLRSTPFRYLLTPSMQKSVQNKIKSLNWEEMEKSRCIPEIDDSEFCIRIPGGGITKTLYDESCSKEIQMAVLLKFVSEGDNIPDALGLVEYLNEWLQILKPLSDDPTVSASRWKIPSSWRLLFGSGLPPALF
MEASUREMENT LABEL: IC50
Express your answer as a number followed by its unit.

# IC50 of `CC(C)[C@@](O)(C[C@H]1C(=O)/C(=C(\O)[C@H]2[C@@H]3CCCC[C@H]3C=C[C@H]2C)C(=O)N1C)C(=O)O` = 6 µM

src = ChEMBL document CHEMBL1157069
